System: stable placental multi-protein complex SPC-1 (donor 1) (Homo sapiens (placenta, donor 1))
Assay: tryptophan fluorescence quenching titration (Scatchard)
Conditions: high-affinity site (Kd1); 5' phosphate as printed (pT); 20 mM Tris-HCl pH 7.5, 150 mM NaCl, 0.3 mg/ml SPC, 25 C; excitation 283 nm, emission 338 nm

{"SEQUENCE CHAIN": "TAGAAGATCAAA [12-mer ODN]", "Kd": "0.036 µM"}

---

System: stable placental multi-protein complex SPC-1 (donor 1) (Homo sapiens (placenta, donor 1))
Assay: tryptophan fluorescence quenching titration (Scatchard)
Conditions: low-affinity site (Kd2); 5' phosphate as printed (pT); 20 mM Tris-HCl pH 7.5, 150 mM NaCl, 0.3 mg/ml SPC, 25 C; excitation 283 nm, emission 338 nm

{"SEQUENCE CHAIN": "TAGAAGATCAAA [12-mer ODN]", "Kd": "2600 nM"}
